meta.source: patent EP2987533B1

tested on: HOP-92; assay: NCI one-dose SRB growth assay; assay type: cell-based; details: Homo sapiens; HOP-92 (Non-Small Cell Lung Cancer), 10^-5 M, 48 h; read-out: % Growth Inhibition (GI %)
Each entry below lists one item and its recorded inhibition at 10 µM value.
Reply with just the number (in %).

compound=CCn1cc(C(=O)O)c(=O)c2cc(F)c(N3CCN(S(=O)(=O)c4c(C)cc(C)cc4C)CC3)cc21 quantitative_readout=12.6

Query string: Value lookup for inhibition at 10 µM; key = O=C(O)c1cn(C2CC2)c2cc(N3CCN(S(=O)(=O)c4ccc(Cl)c(Cl)c4)CC3)c(F)cc2c1=O
Result string: 87.8

Query string: Could you tell me which inhibition at 10 µM is on file for Cc1cc(C)c(S(=O)(=O)N2CCN(c3cc4c(cc3F)c(=O)c(C(=O)O)cn4C3CC3)CC2)c(C)c1 ?
Result string: 53.1

Query string: Endpoint output: inhibition at 10 µM of O=c1[nH]cc(F)c(=O)[nH]1 [Compound 5-FU, 5-fluorouracil, reference compound] . Value?
Result string: 50.6

---

system: UO-31; assay: NCI five-dose SRB growth assay; type: cell-based; conditions: Homo sapiens; UO-31 (Renal Cancer), 48 h
Reported GI50 by item:
Please give a number only; it is taken to be in µM.

Some molecules with known GI50 results, for comparison:
smiles_notation=O=C(O)c1cn(C2CC2)c2cc(N3CCN(S(=O)(=O)c4ccc(Cl)c(Cl)c4)CC3)c(F)cc2c1=O measurement_label=GI50 quantitative_readout=2.58
smiles_notation=CCn1cc(C(=O)O)c(=O)c2cc(F)c(N3CCN(S(=O)(=O)c4cccc5ccccc45)CC3)cc21 measurement_label=GI50 quantitative_readout=2.21

Query string: Write down the reported GI50 of Cc1cc(C)c(S(=O)(=O)N2CCN(c3cc4c(cc3F)c(=O)c(C(=O)O)cn4C3CC3)CC2)c(C)c1 , test system: UO-31.
Result string: 1.96

Query string: GET /values?readout=GI50&system=UO-31&item= CCn1cc(C(=O)O)c(=O)c2cc(F)c(N3CCN(S(=O)(=O)c4ccc(Cl)cc4Cl)CC3)cc21
Result string: 2.2

Query string: Request: GI50, test system UO-31, entry CCn1cc(C(=O)O)c(=O)c2cc(F)c(N3CCN(S(=O)(=O)c4ccc(Cl)cc4)CC3)cc21
Result string: 2.07

---

System: IGROV1
Assay: NCI one-dose SRB growth assay
Format: cell-based
Conditions: Homo sapiens, IGROV-1; IGROV1 (Ovarian Cancer), 10^-5 M, 48 h; read-out: % Growth Inhibition (GI %)
Method: A primary anticancer assay was performed for an approximately 60 human tumor cell line panel derived from nine neoplastic diseases, in accordance with the protocol of the Drug Evaluation Branch, National Cancer Institute, Bethesda, MD (Monks A. et al., J. Natl. Cancer Inst 1991, 83, 757-766; Boyd M.R. and Paull K.D., Drug. Dev. Res. 1995, 34, 91-109; Shoemaker R.H., Nat. Rev. Cancer 2006, 6, 813-823). […]
Measurement Label: inhibition at 10 µM

Examples with answers:
compound="CCn1cc(C(=O)O)c(=O)c2cc(F)c(N3CCN(S(=O)(=O)c4cccc5ccccc45)CC3)cc21 [Compound 7a]" result=86.3%
compound="Cc1cc(C)c(S(=O)(=O)N2CCN(c3cc4c(cc3F)c(=O)c(C(=O)O)cn4C3CC3)CC2)c(C)c1 [Compound 6b]" result=64.3%
compound="O=C(O)c1cn(C2CC2)c2cc(N3CCN(S(=O)(=O)c4ccc(Cl)c(Cl)c4)CC3)c(F)cc2c1=O [Compound 3b]" result=70.7%

The record that follows has no inhibition at 10 µM shown yet.
Query string: Fill in the blank: the reported inhibition at 10 µM of O=C(O)c1cn(C2CC2)c2cc(N3CCN(S(=O)(=O)c4ccc(Cl)cc4Cl)CC3)c(F)cc2c1=O [Compound 2b] is ____.
Result string: < 10%

---

tested on: NCI/ADR-RES; assay: NCI one-dose SRB growth assay; assay type: cell-based; settings: Homo sapiens; NCI/ADR-RES (Ovarian Cancer), 10^-5 M, 48 h; read-out: % Growth Inhibition (GI %)
// reported inhibition at 10 µM per item
Please give a number only; it is taken to be in %.

molecule="Cc1cc(C)c(S(=O)(=O)N2CCN(c3cc4c(cc3F)c(=O)c(C(=O)O)cn4C3CC3)CC2)c(C)c1 [Compound 6b]" scale_unit=% quantitative_readout=30.1
molecule="O=c1[nH]cc(F)c(=O)[nH]1 [Compound 5-FU, 5-fluorouracil, reference compound]" scale_unit=% quantitative_readout=47.6
molecule="O=C(O)c1cn(C2CC2)c2cc(N3CCN(S(=O)(=O)c4ccc(Cl)c(Cl)c4)CC3)c(F)cc2c1=O [Compound 3b]" scale_unit=% quantitative_readout=46.5
molecule="CCn1cc(C(=O)O)c(=O)c2cc(F)c(N3CCN(S(=O)(=O)c4cccc5ccccc45)CC3)cc21 [Compound 7a]" scale_unit=% quantitative_readout=78.7
molecule="CCn1cc(C(=O)O)c(=O)c2cc(F)c(N3CCN(S(=O)(=O)c4ccc(Cl)cc4Cl)CC3)cc21 [Compound 2a]" scale_unit=% quantitative_readout=90.7

Query string: Can you look up the measured inhibition at 10 µM of CCn1cc(C(=O)O)c(=O)c2cc(F)c(N3CCN(S(=O)(=O)c4ccc(Cl)cc4)CC3)cc21 [Compound 1a] for me?
Result string: 31.3

Query string: What does the record list as inhibition at 10 µM for CCn1cc(C(=O)O)c(=O)c2cc(F)c(N3CCN(S(=O)(=O)c4c(C)cc(C)cc4C)CC3)cc21 [Compound 6a] ?
Result string: 15.2

---

system: HL-60(TB); test: NCI one-dose SRB growth assay; assay type: cell-based; conditions: Homo sapiens; HL-60(TB) (Leukemia), 10^-5 M, 48 h; read-out: % Growth Inhibition (GI %)
Measurement Label: inhibition at 10 µM

smiles_notation=Cc1cc(C)c(S(=O)(=O)N2CCN(c3cc4c(cc3F)c(=O)c(C(=O)O)cn4C3CC3)CC2)c(C)c1 result=91.3%
smiles_notation=O=C(O)c1cn(C2CC2)c2cc(N3CCN(S(=O)(=O)c4ccc(Cl)c(Cl)c4)CC3)c(F)cc2c1=O result="> 100%"

Query string: Reported inhibition at 10 µM for CCn1cc(C(=O)O)c(=O)c2cc(F)c(N3CCN(S(=O)(=O)c4ccc(Cl)cc4Cl)CC3)cc21 : what is it?
Result string: > 100%

Query string: Quick check: inhibition at 10 µM of CCn1cc(C(=O)O)c(=O)c2cc(F)c(N3CCN(S(=O)(=O)c4cccc5ccccc45)CC3)cc21 ?
Result string: > 100%

---

Below is a list of entries, each paired with its recorded TGI (total growth inhibitory) value.
test system: prostate cancer; test: NCI five-dose SRB assay, subpanel average; details: average over prostate cancer subpanel, five concentrations, 48 h

smiles_notation=CCn1cc(C(=O)O)c(=O)c2cc(F)c(N3CCN(S(=O)(=O)c4ccc(Cl)cc4)CC3)cc21 result="54.11 µM"

# context switch: different compound, same TGI (total growth inhibitory)
Query string: Tell me the measured TGI (total growth inhibitory) of CCn1cc(C(=O)O)c(=O)c2cc(F)c(N3CCN(S(=O)(=O)c4ccc(Cl)cc4Cl)CC3)cc21 , please.
Result string: 8.72 µM

---

Quick record: GI50, CNS cancer.
Number only, in µM; omit the unit.

Some compounds with recorded GI50:
compound="O=C(O)c1cn(C2CC2)c2cc(N3CCN(S(=O)(=O)c4ccc(Cl)c(Cl)c4)CC3)c(F)cc2c1=O [Compound 3b]" quantitative_readout=3.68
compound="CCn1cc(C(=O)O)c(=O)c2cc(F)c(N3CCN(S(=O)(=O)c4cccc5ccccc45)CC3)cc21 [Compound 7a]" quantitative_readout=3.09
compound="Cc1cc(C)c(S(=O)(=O)N2CCN(c3cc4c(cc3F)c(=O)c(C(=O)O)cn4C3CC3)CC2)c(C)c1 [Compound 6b]" quantitative_readout=2.95
compound="O=c1[nH]cc(F)c(=O)[nH]1 [Compound 5-FU, 5-fluorouracil, reference compound]" quantitative_readout=72.1
compound="CCn1cc(C(=O)O)c(=O)c2cc(F)c(N3CCN(S(=O)(=O)c4ccc(Cl)cc4)CC3)cc21 [Compound 1a]" quantitative_readout=3.57

Kindly review the next compound as well.
Query string: For CCn1cc(C(=O)O)c(=O)c2cc(F)c(N3CCN(S(=O)(=O)c4ccc(Cl)cc4Cl)CC3)cc21 [Compound 2a] , what is its reported GI50?
Result string: 3.03

---

system: OVCAR-8; assay: NCI one-dose SRB growth assay; assay type: cell-based; details: Homo sapiens; OVCAR-8 (Ovarian Cancer), 10^-5 M, 48 h; read-out: % Growth Inhibition (GI %)
Measurement Label: inhibition at 10 µM (%)
The reply should be a number in %, with the unit left off.

Query string: Requested read-out: inhibition at 10 µM. Entry: CCn1cc(C(=O)O)c(=O)c2cc(F)c(N3CCN(S(=O)(=O)c4ccc(Cl)cc4Cl)CC3)cc21
Result string: 94.2

Query string: What value of inhibition at 10 µM has been recorded for this entry: CCn1cc(C(=O)O)c(=O)c2cc(F)c(N3CCN(S(=O)(=O)c4ccc(Cl)cc4)CC3)cc21
Result string: 87.4
